Entries and their measured duplex melting temperature follow.
- ASSAY REMARKS: duplex melting temperature (HRM, EvaGreen); higher = more stable duplex
- CONDITION: duplex concentration 7.5 µM; backbone: PO-PO (both strands phosphodiester DNA)
Write down the numeric answer in °C and omit the unit.

Query block: Tell me measured duplex melting temperature for `AGCTGAGCCTGCCGCC` please.
Result block: 79.7

Query block: Tell me measured duplex melting temperature for `CCGTTGCTGCTAGG` please.
Result block: 69.1

Query block: Tell me measured duplex melting temperature for `GCAGGAGCCGCGACCTG` please.
Result block: 80.8

Query block: Tell me measured duplex melting temperature for `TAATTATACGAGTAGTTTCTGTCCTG` please.
Result block: 74.6

Query block: Tell me measured duplex melting temperature for `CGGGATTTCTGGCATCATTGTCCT` please.
Result block: 79.2

Query block: Tell me measured duplex melting temperature for `GCTGTGAAACAATGTAG` please.
Result block: 65.6

Query block: Tell me measured duplex melting temperature for `TGTCGCACCCTACTA` please.
Result block: 69.7

Query block: Tell me measured duplex melting temperature for `CCACTAGCGGCGCCGTT` please.
Result block: 81.2

Query block: Tell me measured duplex melting temperature for `AATGTCGAACAGCAATT` please.
Result block: 68.5

Query block: Tell me measured duplex melting temperature for `CCGCTCAGAGTAGAGA` please.
Result block: 68.9

Query block: Tell me measured duplex melting temperature for `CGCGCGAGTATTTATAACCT` please.
Result block: 74.5

Query block: Tell me measured duplex melting temperature for `CGATTTTGTCAAGCCT` please.
Result block: 67.7

Query block: Tell me measured duplex melting temperature for `CTGTAAGGCGATATGTT` please.
Result block: 67.4

Query block: Tell me measured duplex melting temperature for `TTGAAAACCCATGTGC` please.
Result block: 66.3

Query block: Tell me measured duplex melting temperature for `CAAGCCTCGATTTTGT` please.
Result block: 68

Query block: Tell me measured duplex melting temperature for `GCCCGAGCATGACTGCG` please.
Result block: 77.9

Query block: Tell me measured duplex melting temperature for `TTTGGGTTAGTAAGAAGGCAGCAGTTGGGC` please.
Result block: 83.4
